B1: CSNK1G1 (parent)
chain: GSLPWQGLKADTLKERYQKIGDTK

variants of: B1; assay: protein stability index of a GFP-peptide fusion (GPS, HEK-293T) (PSI 1-6); higher = more stable; conditions: c terminus: a fixed tail appended;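 note: lentivirally expressed fusions sorted by FACS into six bins by GFP to DsRed ratio, PSI derived from sequencing read proportions per bin multiplied by bin number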
experimental-readout: protein stability index
Please give the numeric answer without any surrounding text.

Q) Request the reported protein stability index associated with `Q6D`
A) 4.48

Q) Request the reported protein stability index associated with `Q18W`
A) 3.34

Q) Request the reported protein stability index associated with `T23I`
A) 3.81

Q) Request the reported protein stability index associated with `Y17E`
A) 5.71

Q) Request the reported protein stability index associated with `S2N`
A) 4.11

Q) Request the reported protein stability index associated with `G7V`
A) 3.65

Q) Request the reported protein stability index associated with `T23A`
A) 4.46

Q) Request the reported protein stability index associated with `D11F`
A) 2.89

Q) Request the reported protein stability index associated with `P4E`
A) 4.46
